Just for reference, PubChem BioAssay (NCI) is where these values come from.

- System: SNB-78 CNS
- Assay Procedure: NCI tumour cell line growth inhibition, 48 h
Quantity Kind: TGI

Cc1ccc(C(=O)CC2(O)C(=O)Nc3c(C)cc(Cl)cc32)cc1 (configuration not stated)	> 100 µM
O=S(O)CCCCCSSc1ccccc1	> 100 µM
O=NN1C(c2ccccc2)CNC(=O)CC1c1ccccc1 (configuration not stated)	> 100 µM
CN(C)CCNc1ccc2ncn3c4ccccc4c(=O)c1c23	19.8 µM
Nc1nnc2c(-c3ccccc3)[nH]nc2n1	> 100 µM
O=S1(=O)N2CN3CN(C2)CN1C3	118 µM
COc1ccccc1NC(=O)C1=C(C)NC(C)=C(C(=O)Nc2ccccc2OC)C1c1ccccc1[N+](=O)[O-]	> 100 µM
Nc1nncc2c1c(Br)cn2C1OC(CO)C(O)C1O (configuration not stated)	> 100 µM

q: If you can, please state the reported TGI value of O=C1[C@@H]2C(c3ccc(Br)cc3)=NO[C@@H]2C(=O)N1c1ccc(Cc2ccc(N3C(=O)[C@H]4C(c5ccc(Br)cc5)=NO[C@H]4C3=O)cc2)cc1 .
a: > 40 µM

q: Try this molecule next: COC1C2C[C@@H](O)CCC2C(C(=O)OCCl)C[C@H]1O (some centres not stated)
a: > 100 µM

q: Try this molecule next: CC1CC2C3CCC4=CC(=O)C=CC4(C)C3(F)C(O)CC2(C)C1(O)C(=O)COP(=O)(O)O (configuration not stated)
a: > 100 µM

q: Try this molecule next: CCNC(=O)C(C)C1CCC2(C)C=CC(=O)C(C)=C2C1O (configuration not stated)
a: > 100 µM

====

- Tested on: MCF7 breast
- Assay Procedure: NCI tumour cell line growth inhibition, 48 h
We begin with a simple list: items and their reported TGI.

O=C1CC(c2c[nH]c3ccc(F)cc23)C(=O)N1 (configuration not stated)	> 100 µM
CO[C@H]1C[C@@H]2CC[C@@H](C)[C@@](O)(O2)C(=O)C(=O)N2CCCC[C@H]2C(=O)O[C@H]([C@H](C)C[C@@H]2CC[C@@H](OC(=O)C(C)(CO)CO)[C@H](OC)C2)CC(=O)[C@H](C)/C=C(\C)[C@@H](O)[C@@H](OC)C(=O)[C@H](C)C[C@H](C)\C=C/C=C/C=C/1C	> 10 µM
Oc1ccc(Cl)cc1C(c1cc(Cl)ccc1O)C(Cl)(Cl)Cl	6.65 µM

Below: the item to evaluate.
q: If you can, please state the reported TGI value of CCOCC1(COCC)CCC(c2[nH]ncc2CN(C)CCNC)CC1 .
a: > 100 µM

====

- Test system: U251 CNS
Hi! Could you answer with just one of these? active, inactive

CCOC(=O)[C@@H](C)C[C@H](Cc1ccccc1)NC(=O)c1csc([C@@H](C[C@H](C(C)C)N(C)C(=O)[C@@H](NC(=O)[C@H]2CCCCN2C)C(C)(C)CC)OC(C)=O)n1	active

Query molecule follows.
q: Look up the recorded call for CCCCN(CCCC)C(=O)[C@H](CC)[C@@H]1CC[C@@H](C)[C@@H]([C@H](C)[C@@H](O)[C@@H](C)C(=O)[C@H](CC)C2O[C@]3(C=C[C@@H](O)[C@]4(CC[C@@](C)([C@H]5CC[C@](O)(CC)[C@H](C)O5)O4)O3)[C@H](C)C[C@@H]2C)O1 (some centres not stated) in this test.
a: inactive
